ASSAY SETUP: 24 h
OUTCOME MEASURE: Nonionic 24 h, mL separation
Value and unit, in that order.

Examples from the recorded data:
>>> reported_value("C=CCCCCCCCC(=O)NCCC[N+](C)(C)CC(O)CS(=O)(=O)[O-] (centres unmarked) [C10-24, C10 DMAPA Sulfobetaine]")
"0.5 mL"
>>> reported_value("C=CCCCCCCCC(=O)NCCC[N+](C)(C)CC(=O)[O-] [C10-22, C10 DMAPA Betaine]")
"0.5 mL"
>>> reported_value("C[N+](C)(C)CCCNC(=O)CCCCCCC/C=C/CCCCCCCC(=O)NCCC[N+](C)(C)[O-] [Mix-35, C18 DiDMAPA Quat AO]")
"1 mL"
>>> reported_value("C[N+](C)(CCCNC(=O)CCCCCCCCC(CCCCCCCC(=O)NCCC[N+](C)(C)CC(=O)[O-])S(=O)(=O)[O-])CC(=O)[O-].[Na+] (centres unmarked) [C18-33, C18 DiBetaine Sulfonate]")
"1 mL"

Q: Check the records and state Nonionic 24 h, mL separation for C[N+](C)(C)CCCNC(=O)CCCCCCC/C=C/CCCCCCCC(=O)NCCC[N+](C)(C)CC(=O)O [Mix-38, C18 DiDMAPA Betaine Quat]
Ans: 0 mL
